Values compiled from the nanobody polyreactivity screen of Harvey et al. (2022).

- test_summary: yeast display, Sf9 membrane polyspecificity reagent, FACS + sequencing; frameworks hold sequencing errors

| sequence_code | polyreactivity (PSR sort gate) |
| --- | --- |
| QVQLVESGGGLVQAGGSLRLSCAASGGILVFYAMGWYRQAPGKERELVAAITKRGTSTYYADSVKGRFTISRDIEKNTVYLQMNSLKPEDTAVYYCAAESIPYYRYDYWGQGSQVTVSS | low polyreactivity |
| QVQLVESGGVLVQAGGSLRLSCAASGYIFGNYAMGWYRQAPGNERELVASIDSGGSTNYADSVKGRFTISRDNAKNTVYLQKNSLKPEDTAVYYWAARPTWNRGRSRKYWRYNYWAQGTQVTVSS | high polyreactivity |
| QVQLVESGGGLVQAGGSLRLSCAASGITFYGYAMGWYRQAPGKERELVARITISGRTNYADYVKGRFTISRDNAKNTVYLQMNSLKPEDTAVYYCNAVYRGYYSGELDYWGQGTQVTVSS | high polyreactivity |
| QVQLVESGGVLVQAGGSLRLSCAASGRTMDPYTMGGYRQAHGKERELVAAITSSGGRTTYADSVKGRFTISRDNAKNYVYLQMNSLKPEDTAVYYCAKKFRPGYRSQYLRYSWGQGTQVTVSS | low polyreactivity |
| QVQLVESGGGLVQAGGSLRLSCAASGRILGPNAMGWYRQAPGKERELVAAINSGGSTNYADSVKGRFTISRDNAKNTVYLQMNSLKPEDTAVSYCAPDKARVAGYGVEYDYWGQGTQVTVSS | low polyreactivity |
| QVQLVESGGGLVQAGGSLRLSCAASGLTFEVYAMGWYRQAPGKERELVAAISSGGGSTYYADSVKGRFTISRDNAKYTVYLQMNSLKPEDSAVYYCNAVAKLYYWRYDYWGQGTQVTVSS | low polyreactivity |
| QVQLVESGGGLVQAGGSLRLSCAASGRTLSYYAMGWYRQAPGKERELVAAIRHSAGSTYYADSVKGRFTISRDTAKNTVYLQMNSLKPEDTAVYYCAKKYYGHRYPSIYDYWGQGTQVTVSS | high polyreactivity |
| QVQLVESGGGLVQAGGSLRLSCAASGSIFIRNAMGWYRQAPGKERELVASISRSGAYTRYADSVKGRFTISRDNAKNTVYLQMNSLKPEDTAVYYCAVRLVNYLSYWRTYNYWGQGTQVTVSS | high polyreactivity |
| QVQLVESGGGLVQAGGSLRLSCAASGITFIVNTMGWYRQAPGKEREFVATISANSDGTYYADSVKGRFTISRDNAKNTVYLQMNSLKPEDTAVYYWGQGTQVTVSS | low polyreactivity |
| QVHLEESGGGLVQAGGSLRLSCAASGFIFNAYAMGWYRQAPGKERELVAAISSSGGRTYYADSVKGRFTISRDNAKNTVYLQMNSLKPEVTAVYYCNTYRYYQYYRSMDYWGQGTQVTVSS | high polyreactivity |
| QVQHVESGGVLVQAGGSLRLSCAASGSTFARNALGWYRQAPGKETELVAAITTRGSSTYYADSVKGRFTISRDKAKNTVYLQLYSLKPEDTAVYYCAAVSRRSWYWGGYRQNGMGYWGQGTQVTVSS | high polyreactivity |
